biological target: PIM2 (human) (UniProt Q9P1W9)
Sequence (Q9P1W9 whole entry, looked up): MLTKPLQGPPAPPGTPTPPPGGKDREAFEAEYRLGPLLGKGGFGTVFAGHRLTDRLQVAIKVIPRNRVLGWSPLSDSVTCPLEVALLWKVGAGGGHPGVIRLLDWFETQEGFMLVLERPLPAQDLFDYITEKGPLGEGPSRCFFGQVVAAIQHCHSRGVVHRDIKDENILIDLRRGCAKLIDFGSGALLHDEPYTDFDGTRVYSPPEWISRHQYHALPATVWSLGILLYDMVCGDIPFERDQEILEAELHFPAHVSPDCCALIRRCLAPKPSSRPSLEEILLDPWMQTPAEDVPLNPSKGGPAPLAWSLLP
pIC50: −log10 of the molar value.
Label criterion met when pIC50 is at or above 7; otherwise label criterion not met.

>>> label("CN1C(=N)NC(=O)/C1=C/c1ccc(-c2cncc3ccccc23)o1")
"criterion not met"
>>> label("N=C1NC(=O)/C(=C/c2ccc(-c3ccc(C(N)=O)cc3O)o2)S1")
"criterion met"
>>> label("CS(=O)(=O)Nc1ccc(-c2ccc(/C=C3\\SC(=N)NC3=O)o2)cc1")
"criterion not met"
>>> label("O=C1NC(=O)/C(=C/c2ccc(-c3ccc4c(C(=O)Nc5cccc(C(F)(F)F)c5)cccc4c3)o2)S1")
"criterion not met"

---

target: MAP4K1 (human); assay: KINOMEscan competition binding; conditions: compound 10.0 µM
quantity-measured: kinase still bound, per cent of control

>>> value_reported("CN1C(=O)c2ccccc2N(C)c2nc(Nc3ccc(N4CCC(O)CC4)cc3)ncc21")
"64%"
>>> value_reported("CN1CCN(c2ccc(C(=O)Nc3ncc4c(n3)N(C)c3ccccc3C(=O)N4C)cc2)CC1")
"98%"
>>> value_reported("CN1C(=O)c2ccccc2N(C)c2nc(NS(=O)(=O)c3ccc(N)cc3)ncc21")
"80%"
>>> value_reported("COc1cc(N2CCN(C)CC2)ccc1Nc1ncc2c(n1)N(C)c1ccccc1N(C)C2=O")
"100%"
>>> value_reported("COc1cc(N2CCN(C)CC2)ccc1Nc1ncc2c(n1)N(C)c1sccc1C(=O)N2C")
"82%"
>>> value_reported("COc1cc(N2CCC(O)CC2)ccc1Nc1ncc2c(n1)N1CCc3cccc(c31)C(=O)N2C")
"96%"
>>> value_reported("O=C1NC(=O)/C(=C/c2c[nH]c(=O)c(-c3ccc(N4CCNCC4)nc3)c2)S1")
"10%"
>>> value_reported("COc1cc(N2CCN(C)CC2)ccc1Nc1ncc2c(n1)Nc1ccccc1NC2=O")
"100%"

---

Catalogue of molecules with associated kinase still bound, per cent of control
target: MAPK9 (human) (UniProt P45984); experiment: KINOMEscan competition binding; details: compound 10.0 µM
Sequence (P45984 whole entry, looked up): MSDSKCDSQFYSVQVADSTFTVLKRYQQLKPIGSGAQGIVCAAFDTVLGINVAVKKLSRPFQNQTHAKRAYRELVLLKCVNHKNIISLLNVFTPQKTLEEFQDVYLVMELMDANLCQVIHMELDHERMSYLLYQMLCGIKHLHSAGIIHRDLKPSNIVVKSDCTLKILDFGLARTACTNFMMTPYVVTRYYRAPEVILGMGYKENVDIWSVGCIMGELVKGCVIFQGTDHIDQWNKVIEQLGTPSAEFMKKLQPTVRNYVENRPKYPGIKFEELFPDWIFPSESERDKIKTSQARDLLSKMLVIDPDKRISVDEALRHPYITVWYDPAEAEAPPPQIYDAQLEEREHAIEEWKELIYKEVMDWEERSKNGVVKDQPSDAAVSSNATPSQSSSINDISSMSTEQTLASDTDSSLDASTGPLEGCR
quantity-measured: kinase still bound, per cent of control (%)

>>> value_reported("COc1cc(N2CCN(C)CC2)ccc1Nc1ncc2c(n1)Nc1ccccc1NC2=O")
69
>>> value_reported("COc1cc(N2CCC(O)CC2)ccc1Nc1ncc2c(n1)N1CCc3cccc(c31)C(=O)N2C")
51
>>> value_reported("NS(=O)(=O)c1ccc(-c2ccc(/C=C3\\SC(=S)N(CC(=O)O)C3=O)o2)cc1")
21
>>> value_reported("CN(C)C1=NC(=O)/C(=C/c2ccc(-c3ccc(S(N)(=O)=O)cc3)o2)S1")
8.1
>>> value_reported("CN1CCN(c2ccc(C(=O)Nc3ncc4c(n3)N(C)c3ccccc3C(=O)N4C)cc2)CC1")
100
>>> value_reported("O=C1NC(=S)S/C1=C\\c1ccc(-c2cncc3ccccc23)o1")
20
>>> value_reported("O=C1NC(=O)/C(=C/c2c[nH]c(=O)c(-c3ccc(N4CCNCC4)nc3)c2)S1")
100
>>> value_reported("COc1cc(N2CCN(C)CC2)ccc1Nc1ncc2c(n1)N(C)c1ccccc1N(C)C2=O")
87
>>> value_reported("CN1C(=O)c2ccccc2N(C)c2nc(NS(=O)(=O)c3ccc(N)cc3)ncc21")
100
>>> value_reported("O=C1NC(=S)S/C1=C\\c1ccc(-c2cccc3ccccc23)o1")
9.8
>>> value_reported("CN1C(=O)c2ccccc2N(C)c2nc(Nc3ccc(N4CCC(O)CC4)cc3)ncc21")
100
>>> value_reported("CSC1=NC(=O)/C(=C/c2ccc(-c3ccc(S(N)(=O)=O)cc3)o2)S1")
6
>>> value_reported("N=C1NC(=O)/C(=C/c2ccc(-c3cncc4ccccc34)o2)S1")
14
>>> value_reported("COc1cc(N2CCN(C)CC2)ccc1Nc1ncc2c(n1)N(C)c1sccc1C(=O)N2C")
82
